Biological target: hM3Dq (Homo sapiens, UniProt P20309, A239G/Y149C)
Sequence (P20309 whole entry Y149C/A239G): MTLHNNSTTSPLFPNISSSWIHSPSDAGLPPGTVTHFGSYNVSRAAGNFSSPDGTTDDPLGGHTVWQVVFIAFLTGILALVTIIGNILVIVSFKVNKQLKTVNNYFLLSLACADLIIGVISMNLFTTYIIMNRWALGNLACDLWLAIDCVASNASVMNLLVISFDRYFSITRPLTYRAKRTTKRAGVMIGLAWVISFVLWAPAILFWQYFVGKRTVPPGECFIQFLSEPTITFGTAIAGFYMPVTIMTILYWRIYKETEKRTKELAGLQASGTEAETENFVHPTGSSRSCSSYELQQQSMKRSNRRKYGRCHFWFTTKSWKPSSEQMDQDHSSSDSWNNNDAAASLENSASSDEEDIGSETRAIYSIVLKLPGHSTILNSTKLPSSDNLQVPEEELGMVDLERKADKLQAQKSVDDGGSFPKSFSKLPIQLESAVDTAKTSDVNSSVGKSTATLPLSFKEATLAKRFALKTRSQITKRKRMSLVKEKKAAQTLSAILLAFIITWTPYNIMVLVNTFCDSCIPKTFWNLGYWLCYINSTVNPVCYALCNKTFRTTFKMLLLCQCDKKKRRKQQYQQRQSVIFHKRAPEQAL
Assay: cell-based
Format: cell-based
Settings: read-out: hM3Dq Emax (relative to CNO)
ATTRIBUTE_MEASURED: Emax (%)

CC[N+]1([O-])CCN(C2=Nc3cc(Cl)ccc3Nc3ccccc32)CC1: 50
CCCN1CCN(C2=Nc3cc(Cl)ccc3Nc3ccccc32)CC1: 50
CCN1CCN(C2=Nc3ccccc3Nc3ccccc32)CC1: 81
CCC[N+]1([O-])CCN(C2=Nc3cc(Cl)ccc3Nc3ccccc32)CC1: 79
C[N+]1(C)CCN(C2=Nc3cc(Cl)ccc3Nc3ccccc32)CC1.[I-]: 100
CC(C)[N+]1([O-])CCN(C2=Nc3cc(Cl)ccc3Nc3ccccc32)CC1: 45
CC[N+]1([O-])CCN(C2=Nc3ccccc3Nc3ccccc32)CC1: 59
CC(C)N1CCN(C2=Nc3cc(Cl)ccc3Nc3ccccc32)CC1: 45
c1ccc2c(c1)N=C(N1CCNCC1)c1ccccc1N2: 100
